Source: ChEMBL document CHEMBL1148324

target: Sulfonylurea receptors; K-ATP channels (Homo sapiens, UniProt O60706+Q09428+Q14654+Q15842); experiment: Evaluated for K-ATP activity in terms of change in membrane potential through guinea pig bladder assay; assay type: functional, Cavia porcellus; settings: target entry is the homologue from another species
pEC50: −log10 of the molar value.
# pEC50 >= 6 gives 1.0, anything below gives 0.0

# check: pEC50 of CC1=C(C(=O)O)C(c2ccc(F)c(Br)c2)C2=C(CCS2(=O)=O)N1 (stereo unspecified) is greater than or equal to 6
0.0

// next record "O=S1(=O)CCCC2=C1C(c1ccc(F)c(Br)c1)C1=C(CCCS1(=O)=O)N2"
0.0

# iterate: O=C1CCCC2=C1C(c1ccc(F)c(Br)c1)C1=C(CCCCS1(=O)=O)N2 (stereo unspecified)
0.0

Then this compound: "O=C1CCCC2=C1[C@H](c1ccc(Br)cc1)C1=C(CCS1(=O)=O)N2"
0.0

Try this compound next: "O=C1CCCC2=C1[C@H](c1ccc3nsnc3c1)C1=C(CCS1(=O)=O)N2"
0.0

Could you do the same for "O=C1CCCC2=C1[C@H](c1cc(Br)c(F)cc1O)C1=C(CCS1(=O)=O)N2" , please?
1.0

Please answer likewise for "O=C1CCCC2=C1[C@H](c1cc(Cl)c(Cl)cc1CO)C1=C(CCS1(=O)=O)N2"
0.0

Further, for "CCc1ccc([C@H]2C3=C(CCCC3=O)NC3=C2S(=O)(=O)CC3)cc1[N+](=O)[O-]" ?
0.0

// query: "O=C1CCC2=C1[C@H](c1ccc(F)c(Br)c1)C1=C(CCS1(=O)=O)N2"
1.0

Would you mind doing "O=C1CCCC2=C1[C@H](c1ccc3nonc3c1)C1=C(CCS1(=O)=O)N2" as well?
1.0

// next record O=S1(=O)CCC2=C1C(c1ccc(F)c(Br)c1)C=C(C(F)(F)F)N2 (stereo unspecified)
1.0

Now try "CC1(C)CC(=O)C2=C(C1)NC1=C([C@H]2c2ccc(F)c(Br)c2)S(=O)(=O)CC1" .
0.0

Okay, and O=C1CCC2=C1C(c1ccc(Br)s1)C1=C(CCS1(=O)=O)N2 (stereo unspecified) ?
0.0

"CC1(C)CCC(=O)C2=C1NC1=C([C@H]2c2ccc(F)c(Br)c2)S(=O)(=O)CC1" , same question.
1.0

Field entry: "O=C1CCCC2=C1[C@H](c1ccc(F)c(-c3ccco3)c1)C1=C(CCS1(=O)=O)N2"
1.0

Next entry: "O=C1CCCC2=C1[C@H](c1cc(Br)ccc1O)C1=C(CCS1(=O)=O)N2"
1.0

Again, but for "O=C1CCCC2=C1[C@H](c1ccc(F)c(-c3cccnc3)c1)C1=C(CCS1(=O)=O)N2"
0.0

Same question for "O=C1CCCC2=C1[C@H](c1ccc(F)c(-c3cccs3)c1)C1=C(CCS1(=O)=O)N2" please.
0.0

Then "CC1(C)CCC2=C(C1=O)[C@H](c1ccc(F)c(Br)c1)C1=C(CCS1(=O)=O)N2" ?
1.0

What do you have for O=C1CCCC2=C1C(c1ccc(F)c(Br)c1)C1=C(CCCS1(=O)=O)N2 (stereo in doubt; 17(-)) ?
1.0

Item: "O=C1CCCC2=C1[C@H](c1ccc(F)c(I)c1)C1=C(CCS1(=O)=O)N2"
1.0

What do we get for "Cc1ccc([C@H]2C3=C(CCCC3=O)NC3=C2S(=O)(=O)CC3)cc1[N+](=O)[O-]" ?
1.0
